# Target Entity: Histone-lysine N-methyltransferase EHMT2 (Homo sapiens) (UniProt Q96KQ7)
# Sequence (Q96KQ7 913-1193 limits assumed): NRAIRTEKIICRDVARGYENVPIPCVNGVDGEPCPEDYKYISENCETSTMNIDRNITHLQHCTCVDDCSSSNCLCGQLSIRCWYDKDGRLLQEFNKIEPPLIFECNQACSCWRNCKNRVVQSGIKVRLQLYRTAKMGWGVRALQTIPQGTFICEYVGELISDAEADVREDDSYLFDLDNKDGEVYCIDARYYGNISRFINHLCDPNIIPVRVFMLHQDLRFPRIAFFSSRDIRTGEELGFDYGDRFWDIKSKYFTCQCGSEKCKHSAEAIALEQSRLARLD
# Procedure Summary: qHTS Assay for Inhibitors of Histone Lysine Methyltransferase G9a; further: nearly all actives have a fitted effect of over 75% in size
# Stated Conditions: G9a H3K9 monomethylation, AlphaScreen, 2 h; series mostly up to 59 µM
Hit rate of the full screen: of about 350,000 compounds, about 31,000 (8.9%) were called active. Another 15% or so got no clear call; they are omitted. The call rests on the fitted dose curve; in most records, active means well fitted inhibition curve with a large enough effect; inconclusive means small, poorly fitted or top-dose-only effect; inactive means no such curve, though single readings can be large or run the other way. The entries come from a sample that favours actives as a whole.
Outcomes you can answer with include only these: TRUE = active, FALSE = inactive

Cc1ccc2cccc(NC(=O)c3ccc(OC(C)C)cc3)c2n1 | FALSE

Query: Called result for Cc1cccc(OP(=O)(Nc2c(C)n(C)n(-c3ccccc3)c2=O)Oc2cccc(C)c2)c1
Response: FALSE

Query: Called result for COc1ccccc1NS(=O)(=O)c1ccc(C(=O)N2CCN(c3ccccc3O)CC2)cc1
Response: TRUE

Query: Called result for O=C(Nc1ccc2nc(SCC(=O)N3CCc4ccccc43)sc2c1)c1ccccc1F
Response: FALSE

Query: Called result for Cc1ccc(Nc2nc(N)nc(CN3CCN(Cc4ccccc4)CC3)n2)cc1Cl
Response: TRUE

Query: Called result for N=C1/C(=C/c2cccn2-c2cccc([N+](=O)[O-])c2)C(=O)N=C2SC=CN12
Response: FALSE

Query: Called result for Cc1occc1C(=O)NC1CCCN(Cc2ccc(CC(C)C)cc2)C1 (stereo unspecified)
Response: FALSE

Query: Called result for CC(C)CC(=O)Nc1cc(C(F)(F)F)ccc1N1CCOCC1
Response: FALSE

Query: Called result for CCOCC(=O)NCc1ccc2c(c1)cc(C)n2C
Response: TRUE

Query: Called result for COc1cc(/C=C2\C(=N)N3N=C(CC(=O)N4CCOCC4)SC3=NC2=O)cc(OC)c1OC
Response: FALSE

Query: Called result for Cc1ccc(C2=N/C(=C\c3ccc(OS(=O)(=O)c4ccc(C)cc4)cc3)C(=O)O2)cc1
Response: FALSE

Query: Called result for COc1ccc(CNC(=O)CNC(=O)c2sc3ccccc3c2Cl)cc1OC
Response: FALSE

Query: Called result for CCOC(=O)N1CCc2c(sc3c2C(=O)NC(c2ccccc2F)N3)C1 (stereo unspecified)
Response: FALSE

Query: Called result for C1=C(N2CCOCC2)/C(=C/c2nc3ccccc3[nH]2)CC1
Response: TRUE

Query: Called result for CSc1cccc(NC(=O)CN2C(=O)CCc3cc(S(=O)(=O)N4CCCCC4)ccc32)c1
Response: FALSE

Query: Called result for CCOC(=O)N1CCc2c(sc3c2c(=O)n(Cc2ccccc2)c(=O)n3CC(=O)Nc2cccc(C)c2)C1
Response: FALSE

Query: Called result for CCc1ccc(CN(Cc2ccco2)C(=O)c2ccccc2Cl)cc1
Response: FALSE

Query: Called result for COc1ccc(NC(=O)C2CCCN(S(=O)(=O)c3c(C)[nH]c(=O)[nH]c3=O)C2)c(OC)c1 (stereo unspecified)
Response: FALSE

Query: Called result for CCS(=O)(=O)C1=NSC2=NC(=O)/C(=C\c3cc(C)n(-c4cccc(OC)c4)c3C)C(=N)N21
Response: FALSE

Query: Called result for NC(=O)c1ccc(CN2CCC(Cc3ccccc3)CC2)cc1
Response: FALSE

----------
# Target Entity: Histone-lysine N-methyltransferase EHMT2 (Homo sapiens)
# Procedure Summary: qHTS Assay for Inhibitors of Histone Lysine Methyltransferase G9a; further: nearly all actives have a fitted effect of over 75% in size
# Stated Conditions: G9a H3K9 monomethylation, AlphaScreen, 2 h; series mostly up to 59 µM
Hit rate of the full screen: of about 350,000 compounds, about 31,000 (8.9%) were called active. Another 15% or so got no clear call; they are omitted. Calls come from the whole dose curve; as a rule, active = well fitted inhibition curve with a large enough effect; inconclusive = small, poorly fitted or top-dose-only effect; inactive = no such curve, though single readings can be large or run the other way. Shown is part of a subset that was picked to be rich in actives.
Outcomes you can answer with include only these: True = active, False = inactive

Query: Called result for C#CCOc1ccc(/C=C2/C(=O)ON=C2C)cc1OCC
Response: True
